# method: Restrictive medium S. cerevisiae growth inhibition, OD615, pilot screen of yeast lifespan reduction project, restrictive growth control (AID 706);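 note: modified DeaD lifespan yeast strain shifted to restrictive glucose medium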
# run_conditions: OD615, 48 h, at 10 µM, stronger effect = higher value

{"compound": "COc1cc2ccccc2cc1-c1nnc(COc2ccccc2)o1", "growth inhibition / %": -14.4}
{"compound": "Cc1cc(NC(=O)CSc2cn(C)c3ccccc23)no1", "growth inhibition / %": 4.95}
{"compound": "Cc1cc(C)c(S(=O)(=O)N2CCN(C)CC2)c(C)c1", "growth inhibition / %": -13.9}
{"compound": "CCCCn1c(=O)n(CC(=O)Nc2ccc(C)c(Cl)c2)c(=O)c2c1ncn2Cc1ccco1", "growth inhibition / %": -24.8}
{"compound": "O=C(COc1ccccc1)N1CCN(S(=O)(=O)c2cccs2)CC1", "growth inhibition / %": -11}
{"compound": "CC1c2[nH]c3ccccc3c2CCN1S(C)(=O)=O (stereo not drawn)", "growth inhibition / %": 14.2}
{"compound": "O=C(C1CCCCN1S(=O)(=O)c1ccc(F)cc1)N1CCN(c2ccccc2F)CC1 (stereo not drawn)", "growth inhibition / %": -8.47}
{"compound": "Cn1cc(SCC(=O)NCc2ccc3c(c2)OCO3)c2ccccc21", "growth inhibition / %": -1.53}
{"compound": "O=C(O)Cn1ncc2c1-c1ccoc1CC2", "growth inhibition / %": 2.4}
{"compound": "O=C(NCCC1=CCCCC1)C1CCCN(S(=O)(=O)c2cccnc2)C1 (stereo not drawn)", "growth inhibition / %": 3.42}
{"compound": "COc1ccc(C(=O)NCCn2ccc3ccccc32)cc1OC", "growth inhibition / %": -16.1}
{"compound": "CCOc1cc(CN2CCSCC2)ccc1O", "growth inhibition / %": -9.94}
{"compound": "CSc1nnc(-c2ccco2)n1-c1ccccc1", "growth inhibition / %": 6.08}
{"compound": "O=C1c2oc3ccc(F)cc3c(=O)c2C(c2ccncc2)N1CCN1CCOCC1 (stereo not drawn)", "growth inhibition / %": 3.27}
{"compound": "Cn1c(C(=O)NCCCN2CCN(c3cccc(Cl)c3)CC2)cc2c(=O)n(C)c3ccccc3c21", "growth inhibition / %": -0.835}
{"compound": "CCOC(=O)c1cccc(NC(=O)C2CCCN2S(=O)(=O)c2cccc3cccnc23)c1 (stereo not drawn)", "growth inhibition / %": -2.39}
{"compound": "CCn1c2ccccc2c2nnc(SCN3C(=O)c4ccccc4C3=O)nc21", "growth inhibition / %": -1.02}
{"compound": "COCCCNC(=O)CN1C(=O)CSc2ncccc21", "growth inhibition / %": 3.79}
{"compound": "CC(C)C(NS(=O)(=O)c1ccc2c(c1)oc(=O)n2C)C(=O)N1CCN(c2ccccc2F)CC1 (stereo not drawn)", "growth inhibition / %": -9.9}
{"compound": "Cn1c(=O)n(C)c2cc(S(=O)(=O)O)ccc21", "growth inhibition / %": 4.85}
{"compound": "COc1ccc(N(CC(=O)N2CCN(C)CC2)S(=O)(=O)c2ccccc2)cc1OC", "growth inhibition / %": -19.4}
{"compound": "COc1ccc(NC(=O)C2CCN(S(=O)(=O)c3ccc(OC)c(OC)c3)CC2)c(OC)c1", "growth inhibition / %": 4.12}
{"compound": "CCc1ccc(C2CC(c3ccc(Cl)cc3)n3nc(N)nc3N2)cc1 (stereo not drawn)", "growth inhibition / %": 17.7}

====

Reported RAM network inhibition values follow for various compounds
# method: RAM signaling pathway blockade in yeast – S. cerevisiae, Pdr1DBD-CYC8 efflux-inhibited sensitized strain, primary screen (AID 1298);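 note: 0% = DMSO untreated cells without growth and 100% = 10 µM 1-NA-PP1 full growth; higher means more yeast growth rescued from 5-FOA killing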
# run_conditions: S. cerevisiae cbk1-as DSE1-URA3 strain, 5-FOA growth OD615, 2 d; at 50 µM; stronger effect = higher value

{"compound": "COc1ccc(S(=O)(=O)N2CC(C)N(S(=O)(=O)c3ccc(OC)cc3)CC2C)cc1 (centres undefined)", "RAM network inhibition (%)": 5.94}
{"compound": "Cc1cccc(-c2noc(CCc3ccccc3)n2)c1", "RAM network inhibition (%)": 2.14}
{"compound": "Cc1nn(-c2ccccc2)c2c1C(c1ccccc1)C(C#N)=C(N)O2 (centres undefined)", "RAM network inhibition (%)": 10.5}
{"compound": "Oc1cnn(-c2ccccc2)c1", "RAM network inhibition (%)": -0.83}
{"compound": "CCn1c(C(=O)N2CCc3ccccc3C2)cc2sccc21", "RAM network inhibition (%)": 4.84}
{"compound": "O=C(NC1CCCCC1)N1CCCCCC1", "RAM network inhibition (%)": 3.56}
{"compound": "COc1ccc(N2CCN(C(=O)c3ccc(CNc4c(N5CCOCC5)c(=O)c4=O)cc3)CC2)cc1", "RAM network inhibition (%)": -1.5}
{"compound": "COc1ccc(OC)c2sc(NC(=O)C(C)C)nc12", "RAM network inhibition (%)": 9.63}
{"compound": "COc1ccc(-c2nnc(COc3ccc4ccccc4c3)o2)cc1OC", "RAM network inhibition (%)": 8.07}
{"compound": "CCOC(=O)C(C)n1cnc2c(nnn2-c2cccc(Cl)c2)c1=O (centres undefined)", "RAM network inhibition (%)": 4.24}
{"compound": "CCOc1ccc(C2c3c(oc4cc(C)c(C)cc4c3=O)C(=O)N2CCCN(C)C)cc1OC (centres undefined)", "RAM network inhibition (%)": -0.66}
{"compound": "CCCc1cc(C(=O)Nc2cccc(C(C)=O)c2)no1", "RAM network inhibition (%)": 2.91}
{"compound": "CCOC(=O)Cn1c(CN2CC(C)OC(C)C2)nc2c1c(=O)n(C)c(=O)n2C (centres undefined)", "RAM network inhibition (%)": -1.12}
{"compound": "CCOc1cc(CN2CCSCC2)ccc1O", "RAM network inhibition (%)": 4.67}
{"compound": "Cc1ccc(-n2c(=O)[nH]cc(C(=O)Nc3ccc4c(c3)OCO4)c2=O)cc1C", "RAM network inhibition (%)": 3.26}
{"compound": "Nc1nc(SCC(=O)NCCCO)nc2sc3c(c12)CCC3", "RAM network inhibition (%)": 0.31}
{"compound": "CCOC(=O)c1ccn(-c2nc(-c3ccco3)cc(C(F)(F)F)n2)n1", "RAM network inhibition (%)": 4.89}
{"compound": "CN(C)S(=O)(=O)N1CCC(Cc2ccccc2)CC1", "RAM network inhibition (%)": 1.8}
{"compound": "COc1ccc(Cc2nc(-c3ccc(Br)o3)no2)cc1OC", "RAM network inhibition (%)": 4.17}
{"compound": "COc1ccc(CCNC(=O)CCn2c(=O)oc3ccccc32)cc1OC", "RAM network inhibition (%)": 1.61}
{"compound": "O=C(CSc1ncn[nH]1)Nc1nnc(-c2ccccc2)s1", "RAM network inhibition (%)": 0.61}
{"compound": "CCOC(=O)c1sc(NC(=O)c2cc(S(=O)(=O)N3CCOCC3)ccc2C)nc1C", "RAM network inhibition (%)": 6.77}
{"compound": "CC(=O)NC(CCS(C)(=O)=O)C(=O)Nc1ccc2c(c1)OCO2 (centres undefined)", "RAM network inhibition (%)": 2.15}
{"compound": "CCCCn1c(C(C)NC(=O)CC)nc2ccccc21 (centres undefined)", "RAM network inhibition (%)": -0.63}

====

# method: inhibitors of the yeast RAM network, pilot screen, dse1pr::URA3 reporter, 5-FOA selection (AID 869);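 note: 0% = DMSO wells with no growth and 100% = 10 µM 1-NA-PP1 with full growth; RAM network block rescues cells from 5-FOA so hits raise OD615 growth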
# run_conditions: S. cerevisiae dse1pr::URA3 5-FOA growth, OD615, 2 d; at 10 µM; stronger effect = higher value; strain carries analog-sensitive mutant Cbk1 kinase
The source made the active and inactive calls.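 The calls were made as follows: active = inhibition over a set limit, the all-compound mean plus 3 SD, in both replicate runs; inconclusive = over that limit in just one replicate run; inactive = at or under that limit in both runs.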

{"compound": "Cc1ccc(C)c(C(=O)N(Cc2nc(-c3ccc(Cl)cc3)no2)C(C)C)c1", "inhibition": "1.21% (inactive)"}
{"compound": "CCCOc1ccc(C2c3c(oc4cc(C)c(C)cc4c3=O)C(=O)N2CCCN(C)C)cc1OCC (stereo not given)", "inhibition": "3.69% (inactive)"}
{"compound": "CC(=O)c1c(C)[nH]c(C(=O)N2CCN(c3ncccn3)CC2)c1C", "inhibition": "1.43% (inactive)"}
{"compound": "Cc1ccc(NC(=O)CN(c2cc(C)cc(C)c2)S(=O)(=O)c2c(C)noc2C)nc1", "inhibition": "0.895% (inactive)"}
{"compound": "COc1ccc(C(=O)Nc2nncs2)cc1S(=O)(=O)N1CC(c2ccccc2)CC1=O (stereo not given)", "inhibition": "0.92% (inactive)"}
{"compound": "CC(=O)NC(O)C(=O)c1ccccc1 (stereo not given)", "inhibition": "-0.095% (inactive)"}
{"compound": "Cc1cc(C)n(/N=C/c2c[nH]c3ccccc23)c(=O)c1", "inhibition": "0.785% (inactive)"}
{"compound": "COC(=O)c1ccc2c(=O)n3c(nc2c1)SCC(c1ccccc1)=N3", "inhibition": "2.39% (inactive)"}
{"compound": "Cc1ccc2cc(-c3noc(C4CCCCC4)n3)c(=O)[nH]c2c1", "inhibition": "3.56% (inactive)"}
{"compound": "Cn1c(=O)c2c(nc(CN3CCOCC3)n2CCCO)n(C)c1=O", "inhibition": "1.76% (inactive)"}
